biological target: sGC α1/β1 heterodimer stably expressed in CHO-K1 cells (CHO-K1/sGC) (Homo sapiens, UniProt Q02108+Q02153); construct: expressed in transfected cells; test: Cell-based sGC Functional Assay (CASA Assay); details: CHO-K1, activation as percentage of maximum cGMP production of Compound A (set to 100%); read-out: % Act.
MEASUREMENT NAME: Emax (%)
Kindly provide the numeric value in % only, without the unit symbol.

Determine its reported Emax: CC(CC(F)(F)F)c1nc(-c2nc(N)c3c(n2)NC(=O)C3(C)c2ccc(F)cn2)c2cnn(C)c2n1 (centres unmarked) [Example 6] 137

Determine its reported Emax: Cn1cc(C2(C3CC3)C(=O)Nc3nc(-c4nc(CCC(F)(F)C(F)(F)F)nc5c4cnn5C)nc(N)c32)nn1 (single isomer, unassigned) [Example 55] 118

Determine its reported Emax: Cn1ccc2c(-c3nc(N)c4c(n3)NC(=O)C4(C)c3ccc(F)cn3)nc(CCC(F)(F)C(F)(F)F)nc21 (centres unmarked) [Example 85] 108

Determine its reported Emax: CC(C)n1ncc(C2(C)C(=O)Nc3nc(-c4nc(CCC(F)(F)C(F)(F)F)nc5c4cnn5C)nc(N)c32)n1 (centres unmarked) [Example 61] 110

Determine its reported Emax: [2H]C([2H])([2H])n1ncc2c(-c3nc(N)c4c(n3)NC(=O)C4(C)c3cncc(OC)c3)nc(CCC(F)(F)C(F)(F)F)nc21 (centres unmarked) [Example 14] 131

Determine its reported Emax: Cn1cc(C2(C3CC3)C(=O)Nc3nc(-c4nc(CCCC(F)(F)F)nc5c4cnn5C)nc(N)c32)nn1 (single isomer, unassigned) [Example 62] 99

Determine its reported Emax: Cn1ncc2c(-c3nc(N)c4c(n3)NC(=O)C4(c3ccc(C(F)(F)F)cn3)C3CC3)nc(CC3CC(F)(F)C3)nc21 (centres unmarked) [Example 32] 113

Determine its reported Emax: Cn1cc(C2(C)C(=O)Nc3nc(-c4nc(CCC(F)(F)C(F)(F)F)nc5c4cnn5C)nc(N)c32)cn1 (centres unmarked) [Example 23] 88

Determine its reported Emax: CC(C)n1cc(C2(C)C(=O)Nc3nc(-c4nc(CCCC(F)(F)F)nc5c4cnn5C)nc(N)c32)nn1 (centres unmarked) [Example 78] 103

Determine its reported Emax: CCC1(c2ccc(OC)nc2)C(=O)Nc2nc(-c3nc(CCC(F)(F)C(F)(F)F)nc4c3cnn4C)nc(N)c21 (centres unmarked) [Example 17] 116

Determine its reported Emax: Cn1ncc2c(-c3nc(N)c4c(n3)NC(=O)C4(c3nnc(C4CC4)o3)C3CC3)nc(CCC(F)(F)C(F)(F)F)nc21 (centres unmarked) [Example 44] 113

Determine its reported Emax: CCC1(c2nnc(C3CC3)o2)C(=O)Nc2nc(-c3nc(CCC(F)(F)C(F)(F)F)nc4c3cnn4C)nc(N)c21 (centres unmarked) [Example 53] 165

Determine its reported Emax: [2H]C([2H])([2H])n1ncc2c(-c3nc(N)c4c(n3)NC(=O)C4(c3nc(CC(C)(C)C(=O)OCC)cs3)C3CC3)nc(CCC(F)(F)C(F)(F)F)nc21 (centres unmarked) [Example 82] 78

Determine its reported Emax: Cn1ncc2c(-c3nc(N)c4c(n3)NC(=O)C4(c3ccc(Cl)cn3)C3CC3)nc(CC3CC(F)(F)C3)nc21 (centres unmarked) [Example 31] 169

----------
Biological target: sGC α1/β1 heterodimer stably expressed in CHO-K1 cells (CHO-K1/sGC) (Homo sapiens, UniProt Q02108+Q02153)
Sequence (Q02108 1-690): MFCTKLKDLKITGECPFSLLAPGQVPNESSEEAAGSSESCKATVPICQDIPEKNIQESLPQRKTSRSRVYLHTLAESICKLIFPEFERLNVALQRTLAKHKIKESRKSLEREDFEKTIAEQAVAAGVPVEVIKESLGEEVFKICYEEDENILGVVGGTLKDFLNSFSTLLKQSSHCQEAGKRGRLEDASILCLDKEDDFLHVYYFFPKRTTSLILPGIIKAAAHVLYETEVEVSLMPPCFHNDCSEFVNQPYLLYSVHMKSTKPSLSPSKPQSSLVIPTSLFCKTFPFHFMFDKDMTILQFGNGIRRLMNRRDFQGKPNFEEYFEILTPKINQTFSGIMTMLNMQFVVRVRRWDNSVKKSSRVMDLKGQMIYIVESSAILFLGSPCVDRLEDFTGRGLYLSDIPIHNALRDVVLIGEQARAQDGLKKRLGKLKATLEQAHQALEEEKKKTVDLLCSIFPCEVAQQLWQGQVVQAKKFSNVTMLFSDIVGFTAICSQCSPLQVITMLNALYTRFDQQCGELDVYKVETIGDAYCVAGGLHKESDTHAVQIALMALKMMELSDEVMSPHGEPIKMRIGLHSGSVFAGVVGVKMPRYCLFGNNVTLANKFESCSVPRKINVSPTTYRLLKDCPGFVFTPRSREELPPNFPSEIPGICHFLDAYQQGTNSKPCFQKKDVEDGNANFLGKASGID
Sequence (Q02153 1-619): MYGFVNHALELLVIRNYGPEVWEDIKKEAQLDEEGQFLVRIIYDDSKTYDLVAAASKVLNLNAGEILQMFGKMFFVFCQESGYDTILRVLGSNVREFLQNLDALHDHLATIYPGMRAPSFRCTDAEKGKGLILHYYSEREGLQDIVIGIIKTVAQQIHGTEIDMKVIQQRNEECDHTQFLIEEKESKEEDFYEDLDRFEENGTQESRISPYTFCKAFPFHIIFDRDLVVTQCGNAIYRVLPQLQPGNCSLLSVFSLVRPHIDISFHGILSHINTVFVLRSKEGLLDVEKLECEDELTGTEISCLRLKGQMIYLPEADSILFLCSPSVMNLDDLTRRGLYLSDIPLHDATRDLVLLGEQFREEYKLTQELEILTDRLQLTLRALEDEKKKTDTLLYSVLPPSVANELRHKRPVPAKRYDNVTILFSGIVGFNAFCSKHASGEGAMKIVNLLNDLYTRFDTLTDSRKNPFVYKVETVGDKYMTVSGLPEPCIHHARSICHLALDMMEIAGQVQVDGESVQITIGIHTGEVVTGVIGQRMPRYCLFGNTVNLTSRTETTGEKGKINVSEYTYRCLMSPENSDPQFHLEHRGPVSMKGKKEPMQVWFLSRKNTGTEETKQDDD
Experiment: Cell-based sGC Functional Assay (CASA Assay)
Details: inflection point of cGMP generation in CHO-K1/sGC cells, 4P fit; 1 hr at 37° C.; read-out: IP
Experimental: sGC is a heme-containing enzyme that converts GTP to secondary messenger cGMP. Increases in cGMP levels affect several physiological processes including vasorelaxation through multiple downstream pathways. […] (Example 1 in WO 2010/065275, published Jun. 10, 2010). The test compounds' activity were then expressed as a percentage of Compound A, the standard in every experiment. This percent activation was calculated either in the presence or absence of DETA-NO which was then plotted. […]
pEC50: −log10 of the molar value.
Label MET when pEC50 >= 7; otherwise NOT MET.

Can [2H]C([2H])([2H])n1ncc2c(-c3nc(N)c4c(n3)NC(=O)C4(c3nnnn3C)C3CC3)nc(CCC(F)(F)C(F)(F)F)nc21 (centres unmarked) be said to have pEC50 at or above 7? NOT MET

Can [2H]C([2H])([2H])n1ncc2c(-c3nc(N)c4c(n3)NC(=O)C4(C)c3coc(C)n3)nc(CCC(F)(F)C(F)(F)F)nc21 (centres unmarked) be said to have pEC50 at or above 7? NOT MET

Can CCCn1cc(C2(CC)C(=O)Nc3nc(-c4nc(CCC(F)(F)C(F)(F)F)nc5c4cnn5C)nc(N)c32)nn1 (single isomer, unassigned) be said to have pEC50 at or above 7? NOT MET

Can Cn1ncc2c(-c3nc(N)c4c(n3)NC(=O)C4(c3ccc(C(F)(F)F)cn3)C3CC3)nc(CC3CC(F)(F)C3)nc21 (centres unmarked) be said to have pEC50 at or above 7? MET

Can Cn1ncc2c(-c3nc(N)c4c(n3)NC(=O)C4(C)c3ccc(Cl)cn3)nc(CC3CC(F)(F)C3)nc21 (centres unmarked) be said to have pEC50 at or above 7? MET

Can [2H]C([2H])([2H])n1ncc2c(-c3nc(N)c4c(n3)NC(=O)C4(c3cnn(C)c3)C3CC3)nc(CCC(F)(F)C(F)(F)F)nc21 (centres unmarked) be said to have pEC50 at or above 7? NOT MET

----------
Target: sGC α1/β1 heterodimer stably expressed in CHO-K1 cells (CHO-K1/sGC) (Homo sapiens, UniProt Q02108+Q02153)
Sequence (Q02108 1-690): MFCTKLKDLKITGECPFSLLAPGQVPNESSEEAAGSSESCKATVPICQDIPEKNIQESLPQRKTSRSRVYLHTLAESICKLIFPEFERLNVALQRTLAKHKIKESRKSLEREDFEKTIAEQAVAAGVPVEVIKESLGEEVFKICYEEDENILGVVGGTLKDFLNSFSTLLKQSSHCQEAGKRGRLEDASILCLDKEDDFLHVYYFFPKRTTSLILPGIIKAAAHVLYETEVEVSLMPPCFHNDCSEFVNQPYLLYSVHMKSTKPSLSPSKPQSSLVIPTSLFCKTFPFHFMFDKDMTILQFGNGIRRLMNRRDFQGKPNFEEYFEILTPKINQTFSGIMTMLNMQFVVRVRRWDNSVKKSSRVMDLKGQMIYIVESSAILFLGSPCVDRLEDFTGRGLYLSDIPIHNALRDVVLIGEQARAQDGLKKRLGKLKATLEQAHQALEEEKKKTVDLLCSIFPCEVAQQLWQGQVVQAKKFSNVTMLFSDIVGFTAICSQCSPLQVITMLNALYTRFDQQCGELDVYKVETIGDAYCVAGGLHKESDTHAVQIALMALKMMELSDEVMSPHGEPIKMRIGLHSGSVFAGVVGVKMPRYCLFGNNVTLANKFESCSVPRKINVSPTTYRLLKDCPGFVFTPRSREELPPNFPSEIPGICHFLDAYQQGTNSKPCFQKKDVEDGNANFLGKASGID
Sequence (Q02153 1-619): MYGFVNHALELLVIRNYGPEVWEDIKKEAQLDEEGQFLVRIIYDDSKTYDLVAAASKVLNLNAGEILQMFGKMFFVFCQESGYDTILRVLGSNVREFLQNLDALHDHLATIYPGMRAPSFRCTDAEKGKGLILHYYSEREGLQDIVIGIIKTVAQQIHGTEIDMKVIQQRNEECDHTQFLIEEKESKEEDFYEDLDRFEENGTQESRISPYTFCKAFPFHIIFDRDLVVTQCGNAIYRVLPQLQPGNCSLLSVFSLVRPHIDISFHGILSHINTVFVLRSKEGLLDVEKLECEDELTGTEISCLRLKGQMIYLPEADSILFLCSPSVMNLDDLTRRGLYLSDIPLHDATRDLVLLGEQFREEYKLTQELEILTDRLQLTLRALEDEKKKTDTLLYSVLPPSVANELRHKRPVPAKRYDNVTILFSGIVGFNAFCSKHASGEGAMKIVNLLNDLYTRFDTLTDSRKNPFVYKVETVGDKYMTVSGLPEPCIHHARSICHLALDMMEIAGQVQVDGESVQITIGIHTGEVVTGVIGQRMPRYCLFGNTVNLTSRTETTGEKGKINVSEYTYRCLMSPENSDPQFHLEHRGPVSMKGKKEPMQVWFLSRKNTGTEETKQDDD
Assay: Cell-based sGC Functional Assay (CASA Assay)
Conditions: inflection point of cGMP generation in CHO-K1/sGC cells, 4P fit; 1 hr at 37° C.; read-out: IP
Procedure: sGC is a heme-containing enzyme that converts GTP to secondary messenger cGMP. Increases in cGMP levels affect several physiological processes including vasorelaxation through multiple downstream pathways. […] (Example 1 in WO 2010/065275, published Jun. 10, 2010). The test compounds' activity were then expressed as a percentage of Compound A, the standard in every experiment. This percent activation was calculated either in the presence or absence of DETA-NO which was then plotted. […]
For each record, check the reported EC50: if it is below 100 nM write fulfilled, else write not fulfilled.

Take the compound [2H]C([2H])([2H])n1ncc2c(-c3nc(N)c4c(n3)NC(=O)C4(C)c3nnc(C4CC4)o3)nc(CCC(F)(F)C(F)(F)F)nc21 (centres unmarked) [Example 39] and say whether its EC50 is less than 100 nM. not fulfilled

Take the compound [2H]C([2H])([2H])n1ncc2c(-c3nc(N)c4c(n3)NC(=O)C4(C)c3ncccn3)nc(CCC(F)(F)C(F)(F)F)nc21 (centres unmarked) [Example 9] and say whether its EC50 is less than 100 nM. not fulfilled

Take the compound CC(C)c1nnc(C2(C)C(=O)Nc3nc(-c4nc(CCC(F)(F)C(F)(F)F)nc5c4cnn5C)nc(N)c32)o1 (centres unmarked) [Example 50] and say whether its EC50 is less than 100 nM. fulfilled

Take the compound CC(C)c1nnc(C2(C3CC3)C(=O)Nc3nc(-c4nc(CCC(F)(F)C(F)(F)F)nc5c4cnn5C)nc(N)c32)o1 (centres unmarked) [Example 49] and say whether its EC50 is less than 100 nM. not fulfilled

Take the compound [2H]C([2H])([2H])n1ncc2c(-c3nc(N)c4c(n3)NC(=O)C4(C)c3cn(C(C)C)nn3)nc(CCC(F)(F)C(F)(F)F)nc21 (single isomer, unassigned) [Example 57] and say whether its EC50 is less than 100 nM. not fulfilled

Take the compound [2H]C([2H])([2H])n1ncc2c(-c3nc(N)c4c(n3)NC(=O)C4(C)c3cn(CC)nn3)nc(CCC(F)(F)C(F)(F)F)nc21 (centres unmarked) [Example 64] and say whether its EC50 is less than 100 nM. not fulfilled

Take the compound CCCCc1nc(-c2nc(N)c3c(n2)NC(=O)C3(C)c2ccc(C(C)C)cn2)c2cnn(C)c2n1 (centres unmarked) [Example 35] and say whether its EC50 is less than 100 nM. fulfilled

Take the compound Cn1ncc2c(-c3nc(N)c4c(n3)NC(=O)C4(C)c3ccccn3)nc(CCC(F)(F)C(F)(F)F)nc21 (centres unmarked) [Example 22] and say whether its EC50 is less than 100 nM. fulfilled

Origin of values: patent US9611278B2
